Recorded DC50 values for a group of molecules are listed next.
experimental.system: TYK2 (Homo sapiens)
Construct: Degradation of TYK2 in cells was quantitatively measured using Meso Scale Discovery (MSD) technology; endogenous in cells; host or cells: OCI-LY10
Sequence (P29597 whole entry): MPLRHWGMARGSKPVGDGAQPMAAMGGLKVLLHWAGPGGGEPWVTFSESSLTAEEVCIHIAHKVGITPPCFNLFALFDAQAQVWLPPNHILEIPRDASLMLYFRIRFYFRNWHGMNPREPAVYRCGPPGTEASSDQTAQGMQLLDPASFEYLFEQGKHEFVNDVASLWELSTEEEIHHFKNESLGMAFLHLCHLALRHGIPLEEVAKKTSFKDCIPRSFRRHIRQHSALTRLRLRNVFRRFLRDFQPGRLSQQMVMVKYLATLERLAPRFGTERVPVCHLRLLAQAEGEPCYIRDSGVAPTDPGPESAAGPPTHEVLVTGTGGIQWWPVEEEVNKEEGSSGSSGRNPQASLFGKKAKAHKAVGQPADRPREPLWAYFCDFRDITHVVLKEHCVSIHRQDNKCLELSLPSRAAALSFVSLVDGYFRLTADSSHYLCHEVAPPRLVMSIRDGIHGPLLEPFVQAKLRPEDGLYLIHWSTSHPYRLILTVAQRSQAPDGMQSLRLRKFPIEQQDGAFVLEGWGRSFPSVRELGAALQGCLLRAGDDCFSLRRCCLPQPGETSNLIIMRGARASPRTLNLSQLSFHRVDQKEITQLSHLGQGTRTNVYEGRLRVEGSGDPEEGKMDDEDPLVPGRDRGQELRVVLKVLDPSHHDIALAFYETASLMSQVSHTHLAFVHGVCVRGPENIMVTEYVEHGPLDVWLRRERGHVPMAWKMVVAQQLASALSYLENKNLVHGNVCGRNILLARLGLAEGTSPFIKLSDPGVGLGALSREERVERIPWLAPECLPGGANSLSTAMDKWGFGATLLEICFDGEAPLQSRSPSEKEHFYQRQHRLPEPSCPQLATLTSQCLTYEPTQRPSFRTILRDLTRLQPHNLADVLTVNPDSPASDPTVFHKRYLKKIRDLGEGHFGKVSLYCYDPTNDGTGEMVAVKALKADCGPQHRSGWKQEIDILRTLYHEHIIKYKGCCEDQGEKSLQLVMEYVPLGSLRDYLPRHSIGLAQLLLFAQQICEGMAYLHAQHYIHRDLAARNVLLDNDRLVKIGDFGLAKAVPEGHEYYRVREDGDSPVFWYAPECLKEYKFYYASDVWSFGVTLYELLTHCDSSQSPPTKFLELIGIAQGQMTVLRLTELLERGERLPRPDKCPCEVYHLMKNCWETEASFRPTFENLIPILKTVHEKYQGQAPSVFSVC
assay.comment: TYK2 MSD degradation in OCI-LY10 cells
Format: cell-based
measurement.conditions: TYK2 degradation in OCI-LY10 cells, 4 to 24 hours incubation, read-out: TYK2 MSD OCI-LY10 Rel-DC50
Procedure: Example 7. TYK2 MSD Degradation Degradation of TYK2 in cells was quantitatively measured using Meso Scale Discovery (MSD) technology. OCI-LY10 cells were seeded in 96-well plates with a density of 0.4 million cells per well in 100 μl fresh media. […] The assay plates were then incubated at room temperature for 1 hour, washed 3 times with 150 μl/well TB ST buffer, and 150 μl/well MSD reading buffer (MSD, R92TC-2) were added. The plates were then analyzed by an MSD reader. […]

// worked examples, DC50 included
# molecule, metric, measured
data = [
    ("CNc1cc(N2CCc3c(N4CCN(C5CCC6(CC5)CCN(C(=O)c5ccc(Cl)c(N7CCC(=O)NC7=O)c5)CC6)CC4)cccc32)nn2c(C(=O)N[C@@H]3C[C@@H]3F)cnc12 [I-284]", "DC50", "> 100 nM"),
    ("CNc1cc(N2CCc3c(-c4ccc(CN5CC6(CCN(C(=O)c7ccc(Cl)c(N8CCC(=O)NC8=O)c7)CC6)C5)nc4)cccc32)nn2c(C(=O)N[C@@H]3C[C@@H]3F)cnc12 [I-247]", "DC50", "< 10 nM"),
]

The molecule listed as CNc1cc(N2CCc3c(-c4ccc(CN5CCC6(CC5)CN(C(=O)c5ccc(Cl)c(N7CCC(=O)NC7=O)c5)CC6(F)F)cn4)cccc32)nn2c(C(=O)N[C@@H]3C[C@@H]3F)cnc12 [I-847] shows DC50 equal to < 1 nM

----------
Recorded DC50 values for a group of compounds are listed next.
experimental.system: TYK2 (Homo sapiens)
Construct: Degradation of TYK2 in cells was quantitatively measured using Meso Scale Discovery (MSD) technology; endogenous in cells; host or cells: OCI-LY10
assay.comment: TYK2 MSD degradation in OCI-LY10 cells
Type: cell-based
measurement.conditions: TYK2 degradation in OCI-LY10 cells, 4 to 24 hours incubation, read-out: TYK2 MSD OCI-LY10 Rel-DC50

// worked examples, DC50 included
# compound, DC50
records = [
    ("CNc1cc(N2CCc3c(-c4ncc(C(=O)N5CC6(CCN(C(=O)c7cc(C)c(Cl)c(N8CCC(=O)NC8=O)c7)CC6)C5)cc4F)cccc32)nn2c(C(=O)N[C@@H]3CC[C@H]3OC)cnc12", "< 1 nM"),
    ("CNc1cc(N2CCc3c(-c4ccc(OC5CC6(CCN(C(=O)c7cc(C)c(Cl)c(N8CCC(=O)NC8=O)c7)CC6)C5)cn4)cccc32)nn2c(C(=O)N[C@@H]3CC[C@H]3OC)cnc12", "< 1 nM"),
]

Note: attention shifts to another entry.
Reading of DC50 for CNC(=O)c1cnc(Nc2ccc(C(=O)NCCOCCOCCOCCN(C(=O)C3CCCN(c4cncc5ccccc45)C3)c3ccc(=O)n(CC(=O)O)c3)cn2)cc1Nc1cccc(-c2ncccn2)c1OC (stereo not drawn) with TYK2 (Homo sapiens): > 100 nM
